Molecular target: HIV-1 Env of isolate MGRM-F1-021 (subtype F) (HIV-1)
Assay: cell-based or functional assay
Measured Parameter: IC50 (neutralization) (µg/mL)
Field: numeric (µg/mL). Do not append units.

GET /values?readout=IC50 (neutralization)&item= PGT-135 (antibody, V domains shown) VH: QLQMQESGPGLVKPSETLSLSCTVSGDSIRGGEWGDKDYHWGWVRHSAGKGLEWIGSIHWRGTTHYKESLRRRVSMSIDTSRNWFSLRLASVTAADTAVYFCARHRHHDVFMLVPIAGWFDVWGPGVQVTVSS VL: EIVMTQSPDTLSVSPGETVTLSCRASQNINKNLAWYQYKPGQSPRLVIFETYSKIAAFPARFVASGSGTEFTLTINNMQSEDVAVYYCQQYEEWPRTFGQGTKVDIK
0.065
